Test: in vivo
Conditions: female, WT littermates of APP/PS1, mouse, po
property_name: Kp

Which Kp value is on record for Cn1c(=O)c2c(ncn2C)n(C)c1=O ? 1.07 to 2.78

* * *

I'd be grateful if you could share measured Papp at 120 min for these entries.
Assay: in vitro
Details: WT, mouse, pH 6
Answer with the value and then the unit.

I would be grateful if you could share the reported Papp at 120 min for C[C@H]1O[C@@H](O[C@H]2[C@@H](O)C[C@H](O[C@H]3[C@@H](O)C[C@H](O[C@H]4CC[C@@]5(C)[C@H](CC[C@@H]6[C@@H]5C[C@@H](O)[C@]5(C)[C@@H](C7=CC(=O)OC7)CC[C@]65O)C4)O[C@@H]3C)O[C@@H]2C)C[C@H](O)[C@@H]1O . 64.2 ×10⁻⁶ cm/s

Recorded Papp at 120 min of CCCCC(=O)N(Cc1ccc(-c2ccccc2-c2nnn[nH]2)cc1)[C@H](C(=O)O)C(C)C , please. 55.8 ×10⁻⁶ cm/s

# get_value(readout='Papp at 120 min', item= Cn1c(=O)c2c(ncn2C)n(C)c1=O ) 31.4 ×10⁻⁶ cm/s

I would be grateful if you could share the reported Papp at 120 min for OC[C@@H](O)[C@@H](O)[C@H](O)[C@H](O)CO [^14C-Mannitol, mannitol] . 10.7 ×10⁻⁶ cm/s

* * *

Assay: in vitro
Conditions: APP/PS1, mouse, pH 6
Provide the recorded Papp at 120 min, 0.1 µCi/mL for the entries that follow.
The reply should read as a number followed by its unit.

Field request: Papp at 120 min, 0.1 µCi/mL | item: OC[C@@H](O)[C@@H](O)[C@H](O)[C@H](O)CO [^14C-Mannitol, mannitol] 6 ×10⁻⁶ cm/s

Looking for the measured Papp at 120 min, 0.1 µCi/mL of C[C@H]1O[C@@H](O[C@H]2[C@@H](O)C[C@H](O[C@H]3[C@@H](O)C[C@H](O[C@H]4CC[C@@]5(C)[C@H](CC[C@@H]6[C@@H]5C[C@@H](O)[C@]5(C)[C@@H](C7=CC(=O)OC7)CC[C@]65O)C4)O[C@@H]3C)O[C@@H]2C)C[C@H](O)[C@@H]1O , can you help? 14.5 ×10⁻⁶ cm/s

What value of Papp at 120 min, 0.1 µCi/mL has been reported for the following molecule? Cn1c(=O)c2c(ncn2C)n(C)c1=O 27.2 ×10⁻⁶ cm/s
